- MEASUREMENT_NOTES: chemical genetic growth profiling, strain panel (AID 1159580);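 also: tested at 20 µM; growth read once vehicle control cultures reached saturation at 30 °C; 1 = growth at the plate median or of vehicle wells; lower values mean less growth of the strain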
- MEASUREMENT_PARAMETERS: S. cerevisiae deletion strains, growth OD, locus YFR003C, strain YPI1, stronger effect = lower value
Out of some 5,500 compounds screened, about 2,000 (36%) were called active. About 18% were inconclusive and are not listed. Some of the results follow.
ENDPOINT_LABEL: normalized growth
Format: numeric value only, no unit, no commentary.

Record excerpt, results attached:
{"columns": ["STRUCTURE_SMILES_STRING", "normalized growth"],
 "data": [
  ["CN(C)C=Nc1nnc(Sc2nc3c(Cl)cc(Cl)cc3s2)s1", 0.973],
  ["COc1cc(Br)cc(C=Nc2ccc(Sc3ccccc3)nc2Sc2ccccc2)c1O", 0.967]
]}

Now take the following compound into account.
Exam item: Which normalized growth is listed for O=C1Nc2ccccc2/C1=C/c1ccc(C(F)(F)F)cc1Cl ?
Marked response: 0.973
